# TGT: Bile acid receptor (Homo sapiens, UniProt Q96RI1)
# Sequence (Q96RI1 whole entry, the tested form may be a part): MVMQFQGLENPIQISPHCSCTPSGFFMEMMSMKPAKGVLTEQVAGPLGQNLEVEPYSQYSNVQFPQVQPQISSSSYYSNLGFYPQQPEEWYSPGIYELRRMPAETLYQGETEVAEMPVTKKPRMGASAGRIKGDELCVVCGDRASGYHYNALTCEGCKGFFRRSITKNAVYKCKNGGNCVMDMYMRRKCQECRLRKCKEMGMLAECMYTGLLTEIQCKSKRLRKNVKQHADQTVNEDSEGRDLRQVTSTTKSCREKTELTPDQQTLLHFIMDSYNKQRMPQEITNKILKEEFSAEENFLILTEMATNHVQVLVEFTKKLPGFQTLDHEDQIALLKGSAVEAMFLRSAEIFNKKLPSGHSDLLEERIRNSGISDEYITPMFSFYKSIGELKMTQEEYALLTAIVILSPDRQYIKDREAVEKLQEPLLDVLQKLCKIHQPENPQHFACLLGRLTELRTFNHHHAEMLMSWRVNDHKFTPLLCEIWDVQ
# MEASUREMENT PROTOCOL: Agonist activity at FXR-LBD (unknown origin) incubated for 3 hrs in presence of fluorescein-coactivator peptide by TR-FRET analysis
pEC50: −log10 of the molar value.
RECORDED METRIC: pEC50

Worked cases, pEC50 given:
O=C(c1cccc(-c2ccc(OCc3c(-c4c(Cl)cccc4Cl)noc3C3CC3)cc2)c1)N1CCOCC1 ... < 5.00
CN(C)C(=O)c1cccc(-c2ccc(OCc3c(-c4c(Cl)cccc4Cl)noc3C3CC3)cc2)c1 ... 6.68

The record that follows has no pEC50 shown yet.
Ask: Could you tell me which pEC50 is on file for `O=C(NCC1CC1)c1cccc(-c2ccc(OCc3c(-c4c(Cl)cccc4Cl)noc3C3CC3)cc2)c1` ?
Reply: < 5.00
